Quick reference: IC50 of the listed items.
Tested on: A375
Assay: Growth inhibition assay, PA alone, A375
Format: cell-based
Settings: Homo sapiens, A-375, 144 h, PA alone (no DFMO), six days; repeat determinations; read-out: Cell Line IC50 A375

Can you look up IC50 on A375 for CCCC(=O)NCCC[C@@H](N)C(=O)NCCCNCCCCNCCCN ? > 100 µM

Can you look up IC50 on A375 for CCCC(CCC)NCCCC[C@H](N)C(=O)NCCCNCCCCNCCCN ? > 100 µM

Can you look up IC50 on A375 for NCCCNCCCCNCCCNC(=O)[C@H](N)CCCNC(=O)C1CCCCC1 ? > 100 µM

Can you look up IC50 on A375 for CCCCCCCCCCCCCCCCCC(=O)NCCCC[C@@H](N)C(=O)NCCCNCCCCNCCCN ? > 3 µM

Can you look up IC50 on A375 for CC(C)(C)CNCCCC[C@H](N)C(=O)NCCCNCCCCNCCCN ? > 100 µM

Can you look up IC50 on A375 for CC(C)[C@@H]1CC[C@@H](C)CC1NCCCC[C@@H](N)C(=O)NCCCNCCCCNCCCN (some centres unmarked) ? > 100 µM

Can you look up IC50 on A375 for NCCCNCCCCNCCCNC(=O)[C@H](N)CCCCNC(=O)c1ccccc1 ? > 30 µM

Can you look up IC50 on A375 for CC(C)CCNCCCC[C@@H](N)C(=O)NCCCNCCCCNCCCN ? > 100 µM

====

Test system: 4 cell lines (A375, MDA-MB-231, PC-3, SK-OV-3)
Assay: Growth inhibition with DFMO, average over 4 cell lines
Format: cell-based
Details: Table 3; average over cell lines, with DFMO; read-out: AVG. EC50
pEC50: −log10 of the molar value.
Could you label it TRUE if measured pEC50 is 6 or higher, and FALSE otherwise?

Worked set:
| smiles.entry | class.name |
| --- | --- |
| CCCCCCCC(=O)NCCCC[C@H](N)C(=O)NCCCNCCCCNCCCN | FALSE |
| CC(C)[C@@H]1CC[C@@H](C)C[C@H]1OCC(=O)NCCCC[C@@H](N)C(=O)NCCCNCCCCNCCCN | FALSE |

Tell me whether pEC50 is at least 6 here: CCCCCCCCCCCCCCCCNCCCC[C@H](N)C(=O)NCCCNCCCCNCCCN TRUE

Tell me whether pEC50 is at least 6 here: CC(C)(C)CC(=O)NCCCC[C@@H](N)C(=O)NCCCNCCCCNCCCN FALSE

Tell me whether pEC50 is at least 6 here: CC(C)CC(=O)NCCCC[C@@H](N)C(=O)NCCCNCCCCNCCCN FALSE

Tell me whether pEC50 is at least 6 here: CCCCCCCCCCCCCCCCS(=O)(=O)NCCCC[C@H](N)C(=O)NCCCNCCCCNCCCN TRUE

Tell me whether pEC50 is at least 6 here: CCCCCCCCCCCCCCCCS(=O)(=O)NCCCC[C@@H](N)C(=O)NCCCNCCCCNCCCN TRUE

Tell me whether pEC50 is at least 6 here: CCS(=O)(=O)N[C@@H](CCCCN)C(=O)NCCCNCCCCNCCCN FALSE

Tell me whether pEC50 is at least 6 here: CCCCCCCNCCCC[C@@H](N)C(=O)NCCCNCCCCNCCCN TRUE

Tell me whether pEC50 is at least 6 here: CCCCCCCNCCCC[C@H](N)C(=O)NCCCNCCCCNCCCN TRUE

Tell me whether pEC50 is at least 6 here: CCCCCCCCCCCCCCCCCCCC(=O)NCCCC[C@H](N)C(=O)NCCCNCCCCNCCCN TRUE

Tell me whether pEC50 is at least 6 here: NCCCNCCCCNCCCNC(=O)[C@H](N)CCCCNCC1CCCCC1 TRUE

Tell me whether pEC50 is at least 6 here: CCCCCCCC(=O)NCCCC[C@@H](N)C(=O)NCCCNCCCCNCCCN FALSE
